The reader will find reported composite z-score values listed item by item below.
Test system: Inhibin beta A chain (activin A)
run-description: small molecules binding activin A – biochemical, small-molecule microarray, 635 nm fluorescence scan, primary screen (AID 1107);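 note: mouse activin A protein probed at 4.33 µg/mL on printed slides; score merges bound-protein fluorescence near 667 nm with spot signal-to-noise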
cond: INHBA, higher = more signal
API note: the answer field is a bare number with no unit suffix.

Answered examples (5):
{"columns": ["molecule", "value-reported"],
 "data": [
  ["CCCNC(=O)[C@@H]1c2ccccc2C(=O)N(Cc2ccc(OC(F)(F)F)cc2)[C@H]1c1ccc(CO)cc1", 0.0914],
  ["CC(C)N1C(=O)C[C@@](C(=O)NC2CC2)(c2ccc([N+](=O)[O-])cc2)[C@H]1c1ccc(CO)cc1", -1.48],
  ["CC[C@@H]1C=C(C(=O)O)[C@H](c2ccc(C#N)cc2)N1S(=O)(=O)c1ccc(C)cc1", 0.264],
  ["COC(=O)c1c(CC[C@@H](CO)NC(=O)N2CCC[C@H]2Cn2cc(C3(O)CCCCC3)nn2)oc(C(C)=O)c1C(=O)OC", 0.0806],
  ["C=CCOC(=O)[C@@]1(Cc2ccccc2)C[C@H]2CO[C@H](c3ccc(OC)cc3)N2C1=O", 0.351]
]}

# return composite z-score for C=CC[C@@]1(C(=O)NCCCOC)N=C(c2ccc(OCCCO)cc2)O[C@@H]1c1ccccc1 , test system: Inhibin beta A chain (activin A)
0.923

# return composite z-score for CCCC=C(CCC)[C@@H](NS(=O)(=O)CC12CCC(CC1=O)C2(C)C)c1ccc(C(=O)OC)cc1 (stereo partly specified) , test system: Inhibin beta A chain (activin A)
-0.0344

# return composite z-score for CCOC(=O)C[C@H]1[C@H](OC(=O)c2ccc(-c3ccccc3)cc2)[C@@H](NC(=O)CC(C)C)c2cc(OCCCO)ccc2N1C(=O)c1ccc2ccccc2n1 , test system: Inhibin beta A chain (activin A)
0.0746

# return composite z-score for Cc1ccc(F)cc1S(=O)(=O)N[C@@H]1CCN(Cc2ccc(Br)cc2)C1 , test system: Inhibin beta A chain (activin A)
0.359

# return composite z-score for O=C(C1N=C(c2ccc(OCCCO)cc2)N(c2ccccc2)O1)N1CCCCC1 (stereo unspecified) , test system: Inhibin beta A chain (activin A)
0.088

# return composite z-score for CCOC(=O)C[C@H]1[C@H](OC(=O)Cc2ccc3c(c2)OCO3)[C@@H](NC(=O)c2ccc3ccccc3n2)c2cc(OCCCO)ccc2N1C(=O)c1ccc2ccccc2n1 , test system: Inhibin beta A chain (activin A)
0.265

# return composite z-score for C[N+](C)(C)CCCC[C@@H]1NC(=O)[C@@H]2C[C@H](C(=O)NCCCCCCN)[C@H](c3cccc(OCCO)c3)N2C1=O , test system: Inhibin beta A chain (activin A)
1.4

# return composite z-score for COc1ccc([Si](C)(C)[C@H]2[C@H](CC(=O)N3Cc4ccccc4C[C@H]3CO)O[C@@]3(C(=O)N(Cc4ccc(N5CCOC5=O)cc4)c4ccccc43)[C@@H]2C)cc1 , test system: Inhibin beta A chain (activin A)
1.05

====

target: Calmodulin-1 (Homo sapiens)
run-description: small molecules binding calmodulin-1 with EGTA – biochemical, small-molecule microarray, Cy5-labelled CALM1, profiling panel (AID 1111);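 note: labelled calmodulin applied in Tris saline Tween buffer holding calcium plus EGTA and DTT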
cond: Cy5-CALM1 binding fluorescence, higher = more signal
The reader will find reported composite z-score values listed item by item below.
API note: the answer field is a bare number with no unit suffix.

Answered examples (3):
{"columns": ["molecule", "experimental-readout", "value-reported"],
 "data": [
  ["Cc1cc(C)c(C(O)C2C=CC3C(=O)N(c4ccccc4)C(=O)C3N2Nc2ccccc2F)c(C)c1 (centres undefined)", "composite z-score", 0.139],
  ["COC(=O)[C@@]1(Cc2ccc(F)cc2)[C@H]2c3cc(C(=O)N4CCCC4)n(Cc4ccc(C)c(F)c4F)c3C[C@H]2CN1C(=O)c1ccccc1", "composite z-score", 0.344],
  ["C=CC[C@@H](OC(=O)Nc1ccc(OC)cc1)c1ccc(O)c(F)c1", "composite z-score", -0.976]
]}

// next item, composite z-score requested
# return composite z-score for CC(C)[Si]1(C(C)C)OCc2cc(-c3ccc(-c4ccc(Cl)c(Cl)c4)o3)nc(-c3ccccc3)c21 , test system: Calmodulin-1 (Homo sapiens)
-0.856

====

run-description: compounds binding Alexa647 anti-His antibody – biochemical, small-molecule microarray, 635 nm fluorescence, artefact control for SMM control protein annotation, primary screen (AID 1128);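 note: score merges feature fluorescence with signal-to-noise for each printed compound spot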
cond: higher = more signal
The reader will find reported composite z-score values listed item by item below.
API note: the answer field is a bare number with no unit suffix.

Please supply the value of reported composite z-score for the item CCCNC(=O)[C@@]1(C)c2ccccc2C(=O)N(c2ccc(C)cn2)[C@H]1c1ccc(CO)cc1
0.0998

Please supply the value of reported composite z-score for the item O=C(C1N=C(c2ccc(OCCCO)cc2)N(c2ccccc2)O1)N1CCCCC1 (centres undefined)
1.94

Please supply the value of reported composite z-score for the item COc1ccc(C#Cc2ccc3c(c2)[C@]2(C(=O)N3)[C@H](C(=O)O)[C@H]3C(=O)O[C@H](c4ccccc4)[C@H](c4ccccc4)N3[C@@H]2c2ccc(O)cc2)cc1
-0.272

====

run-description: probe aNOTCH2 binding on compound microarray – biochemical, small-molecule microarray, 635/667 nm fluorescence, primary screen (AID 1121);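 note: score merges feature fluorescence read at 667 nm with its signal to noise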
cond: higher = more signal
Label rule, in plain words: composite z-score of -0.03 and up is T, under -0.03 is F.

{"columns": ["molecule", "qualitative-label"],
 "data": [
  ["C=CC[C@H](OC(=O)Nc1ccc(SC)cc1)c1ccc(O)c2ccccc12", "F"],
  ["O=C1NC(=O)C2C1C=CC(C(O)c1ccco1)N2Nc1ccc(Cl)cc1Cl (stereo not drawn)", "F"],
  ["CC(C)[Si]1(C(C)C)OCc2cc(C3CC3)nc(-c3ccc(Oc4ccccc4)cc3)c21", "F"],
  ["CN1C(=O)C2C=CC(C(O)c3cccn3C)N(Nc3ccc([N+](=O)[O-])cc3[N+](=O)[O-])C2C1=O (stereo not drawn)", "T"],
  ["COc1ccc(CCNC(=O)[C@@H]2c3ccccc3C(=O)N(C3CCCCC3)[C@H]2c2ccc(CO)cc2)cc1", "F"],
  ["[N-]=[N+]=Nc1ccccc1C[C@@]1(C(=O)NCCN2CCOCC2)N=C(c2ccc(OCCCO)cc2)O[C@@H]1c1ccccc1N=[N+]=[N-]", "T"],
  ["CCCNC(=O)[C@@]1(Sc2ccc(C)cc2)CC(=O)N(C2Cc3ccccc3C2)[C@@H]1c1ccc(CO)cc1I", "T"]
]}

Record CCCCN1CC=CC23O[C@@H]4/C=C\CCC(C)OC(=O)C4[C@H]2C(=O)N(CCCO)[C@@H]3C1=O (stereo partly drawn) ; criterion: composite z-score no lower than -0.03. Met?
F

====

run-description: blockers of DNA damage checkpoint Chk1 activation – imaging, HeLa, hydroxyurea, phospho-Chk1 antibody, percent positive cells, primary screen (AID 1186)
cond: hydroxyurea-induced phospho-Chk1 immunofluorescence imaging, higher = more signal
experimental-readout: z-score
API note: the answer field is a bare number with no unit suffix.

Answered examples (5):
{"columns": ["molecule", "experimental-readout", "value-reported"],
 "data": [
  ["COCCOC(=O)N1C(=O)[C@@]2(c3cc(C#CCC(C(=O)OC)C(=O)OC)ccc31)[C@H](c1ccc(OCCO)cc1)N1[C@H](c3ccccc3)[C@H](c3ccccc3)OC(=O)[C@H]1[C@@H]2C(=O)N1CCc2cc(OC)c(OC)cc2C1", "z-score", -0.0277],
  ["CCOC(=O)C[C@H]1[C@H](OC(=O)Cc2ccc3c(c2)OCO3)[C@@H](NC(=O)C2CCCCC2)c2cc(OCCCO)ccc2N1C(=O)c1ccccc1", "z-score", -0.296],
  ["O=C(O)[C@@H]1C[C@@H]2C(=O)N3CCC[C@H]3C(=O)N2[C@@H]1c1ccc(O)cc1", "z-score", 0.959],
  ["O=C1OCCC=C[C@H]2OC34C=CCN(Cn5nnc6ccccc65)C(=O)[C@H]3N(CCCO)C(=O)[C@@H]4C12 (stereo partly specified)", "z-score", -0.628],
  ["Cc1ccc(S[C@]2(C(=O)NCCN3CCOCC3)CC(=O)N(Cc3ccccc3Cl)[C@@H]2c2ccc(CO)cc2I)cc1", "z-score", 0.0327]
]}

// next item, z-score requested
Please supply the value of reported z-score for the item COc1ccc([Si](C)(C)[C@@H]2[C@@H](CCO)O[C@]3(C(=O)N(Cc4ccccc4)c4ccc(NC(=O)[C@H](C)O)cc43)[C@H]2C)cc1
-0.178

====

The reader will find reported composite z-score values listed item by item below.
run-description: probe aCHRDL2 binding to arrayed compounds – biochemical, biotinylated probe, 635/667 nm fluorescence, primary screen (AID 1100)
cond: small-molecule microarray, higher = more signal
API note: the answer field is a bare number with no unit suffix.

{"columns": ["compound", "experimental-readout", "value-reported"],
 "data": [
  ["CCCN1C(=O)[C@]2(Cc3ccccc31)N=C(c1ccc(OCCCO)cc1)O[C@@H]2c1ccccc1", "composite z-score", 0.865],
  ["O=C(NCCN1CCOCC1)[C@@H]1c2ccccc2C(=O)N(C2Cc3ccccc3C2)[C@H]1c1ccc(CO)cc1", "composite z-score", 0.852],
  ["NC(=O)[C@H]1[C@@H]2C(=O)O[C@@H](c3ccccc3)[C@@H](c3ccccc3)N2[C@@H](c2ccc(OCCO)cc2)[C@]12C(=O)Nc1ccc(C#CCCO)cc12", "composite z-score", 0.485],
  ["CCOC(=O)C[C@H]1[C@H](OC(=O)c2cc3ccccc3oc2=O)[C@@H](NC(=O)c2ccc3ccccc3n2)c2cc(OCCCO)ccc2N1C(=O)Cc1ccc(OC)cc1", "composite z-score", -0.427],
  ["C=CCNC(=O)[C@@H]1[C@H]2C(=O)O[C@H](c3ccccc3)[C@H](c3ccccc3)N2[C@H](c2ccccc2OCCO)[C@@]12C(=O)Nc1ccc(C#CCCO)cc12", "composite z-score", 0.178]
]}

Please supply the value of reported composite z-score for the item O=C(O)[C@@H]1[C@@H]2C(=O)N(c3ccccc3)C(=O)[C@@H]2C[C@@H]1Sc1ccccc1
0.519

Please supply the value of reported composite z-score for the item CC(C)C(CO)N1C(=O)[C@@H]2C3C(=O)OCCC/C=C\[C@H]3OC23C=CCN(Cn2nnc4ccccc42)C(=O)[C@@H]13 (some centres undefined)
0.543

Please supply the value of reported composite z-score for the item C=CCOC(=O)[C@@H]1[C@H]2C(=O)O[C@H](c3ccccc3)[C@H](c3ccccc3)N2[C@H](c2ccc(OCCOC(=O)[C@@H]3C[C@@H]4C(=O)N[C@@H](CCCC[N+](C)(C)C)C(=O)N4[C@@H]3c3ccc(O)cc3)cc2)[C@@]12C(=O)Nc1ccc(I)cc12
-0.18

Please supply the value of reported composite z-score for the item CN(C)CCCCCCNC(=O)[C@@H]1C[C@@H]2C(=O)N3CCC[C@H]3C(=O)N2[C@@H]1c1cccc(OCCO)c1
0.481

Please supply the value of reported composite z-score for the item C=C(COC)/C(=C/C[C@H](OC(=O)c1ccncc1)c1ccc(CO)o1)c1cnc2ccccc2c1
-0.137

Please supply the value of reported composite z-score for the item CN(C)C(=O)[C@@]1(Cc2ccccc2CN=[N+]=[N-])N=C(c2ccc(OCCCO)cc2)O[C@H]1c1ccccc1N=[N+]=[N-]
1

Source: PubChem BioAssay
